tested on: Bombyx mori; test: Antijuvenile hormone activity against third-instar larvae of Bombyx mori assessed as precocious metamorphosis-inducing activity at 1 ug/larva; assay type: functional
Property: Activity; scope: individual molecules
Please give a number only; it is taken to be in %.

> print(dat)
                                smiles.data  value.measured
1  CCOC(=O)c1ccc(OCc2cc3c(cc2OC)CCC(C)(C)O3)cc1              46

[Q] Tell me Activity reported for CCOC(=O)c1ccc(OCc2cc3c(cc2OC)CCCC3)cc1
[A] 0

[Q] Return Activity (reported value) for this molecule: CCOC(=O)c1ccc(OCc2cc3c(cc2OC)C=CC(C)(C)O3)cc1
[A] 75

###

system: Bombyx mori; assay: Antijuvenile hormone activity against third-instar larvae of Bombyx mori assessed as precocious metamorphosis-inducing activity at 1 ug/larva; format: functional
Endpoint Name: Activity (%)
Give the value, in units of %, as a plain number.

[Q] Answer with reported Activity of CCOC(=O)c1ccc(OCc2cc(OC)c(OC)cc2OC)cc1
[A] 0

[Q] Tell me Activity reported for CCOC(=O)c1ccc(OCc2cc3c(cc2OCc2ccccc2)C=CC(C)(C)O3)cc1
[A] 40

[Q] Entry CCOC(=O)c1ccc(OCc2cc3c(cc2OC)OCCO3)cc1 needs its Activity filled in; supply it.
[A] 10

[Q] Answer with the recorded Activity for the compound listed here: CCCOc1cc2c(cc1COc1ccc(C(=O)OCC)cc1)OC(C)(C)C=C2
[A] 0

[Q] For the compound CCOC(=O)c1ccc(OCc2ccc3c(c2)OC(C)(C)C=C3)cc1 , give its measured Activity value.
[A] 0

[Q] Return Activity (reported value) for this compound: CCOC(=O)c1ccc(OCc2cc3c(cc2OCC)C=CC(C)(C)O3)cc1
[A] 0

Source listed as ChEMBL document CHEMBL3046779.
